measured_on: Voltage-gated inwardly rectifying potassium channel KCNH2 (Homo sapiens, UniProt Q12809, F656M)
test_protocol: Inhibition of human recombinant ERG F656M mutant expressed in CHOK1 cells by whole-cell plate-based electrophysiology
conditions: cho-k1
Entries annotated with measured delta pIC50 wt-mutant
readout_label: delta pIC50 wt-mutant

1. CC1(C)CCc2cc(CN3CCC4(CC3)CCN(C(=O)c3ccc(N)cn3)CC4)ccc2O1	-0.66
2. CC1(C)C=Cc2cccc(CN3CCC4(CC3)CCN(C(=O)c3ccnc(N)c3)CC4)c2O1	0.37
3. COc1ccccc1Oc1cccc(CN2CCC3(CC2)CCN(C(=O)c2ccncn2)CC3)c1	-0.2
4. CC1(C)Oc2c(CN3CCC4(CC3)CCN(C(=O)c3ccc(N)cn3)CC4)cccc2C1(F)F	-0.49
5. CC1(C)Oc2cccc(CN3CCC4(CC3)CCN(C(=O)c3ccnc(N)c3)CC4)c2O1	0.62

====

measured_on: Voltage-gated inwardly rectifying potassium channel KCNH2 (Homo sapiens, UniProt Q12809, T623S)
test_protocol: Inhibition of human recombinant ERG T623S mutant expressed in CHOK1 cells by whole-cell plate-based electrophysiology
conditions: cho-k1
delta pIC50 wt-mutant strictly under 0.2 means Met; at 0.2 or over means Not met.

1. CC1Cc2cccc(CN3CCC4(CC3)CCN(C(=O)c3ccncc3)CC4)c2O1 (centres undefined)	Not met
2. O=C(c1ccncc1)N1CCC2(CCN(Cc3ccccc3OC(F)(F)C(F)F)CC2)CC1	Met
3. CC1(C)Oc2c(CN3CCC4(CC3)CCN(C(=O)c3ccc(N)cn3)CC4)cccc2C1(F)F	Met
4. CC1(C)Cc2cccc(CN3CCC4(CC3)CCN(C(=O)c3ccc(N)cn3)CC4)c2O1	Not met
5. CC(C)COc1ccccc1CN1CCC2(CC1)CCN(C(=O)c1ccncn1)CC2	Not met
6. CC1(C)CCc2cc(CN3CCC4(CC3)CCN(C(=O)c3ccncn3)CC4)ccc2O1	Not met
7. COc1ccccc1Oc1cccc(CN2CCC3(CC2)CCN(C(=O)c2ccncn2)CC3)c1	Not met
8. CC1(C)Oc2cccc(CN3CCC4(CC3)CCN(C(=O)c3ccnc(N)c3)CC4)c2O1	Met
9. CC1(C)Cc2cccc(CN3CCC4(CC3)CCN(C(=O)c3ncccc3N)CC4)c2O1	Not met
10. CC1(C)CCc2cc(CN3CCC4(CC3)CCN(C(=O)c3ccc(N)cn3)CC4)ccc2O1	Not met
11. COc1ccccc1Oc1ccccc1CN1CCC2(CC1)CCN(C(=O)c1ccc[nH]c1=O)CC2	Not met
12. CC1(C)Cc2c(CN3CCC4(CC3)CCN(C(=O)c3ccnc(N)c3)CC4)cccc2O1	Met
13. CC1(C)Cc2c(CN3CCC4(CC3)CCN(C(=O)c3ccc(N)cn3)CC4)cccc2O1	Not met

====

measured_on: Voltage-gated inwardly rectifying potassium channel KCNH2 (Homo sapiens, UniProt Q12809, S624A)
test_protocol: Inhibition of human recombinant ERG S624A mutant expressed in CHOK1 cells by whole-cell plate-based electrophysiology
conditions: cho-k1
# delta pIC50 wt-mutant per entry
readout_label: delta pIC50 wt-mutant

1) CC1(C)Cc2cccc(CN3CCC4(CC3)CCN(C(=O)c3ccc(N)cn3)CC4)c2O1	0.82
2) CC1(C)Oc2cccc(CN3CCC4(CC3)CCN(C(=O)c3ccnc(N)c3)CC4)c2O1	0.59
3) CC(C)COc1ccccc1CN1CCC2(CC1)CCN(C(=O)c1ccncn1)CC2	0.51
4) CC1(C)CCc2cc(CN3CCC4(CC3)CCN(C(=O)c3ccc(N)cn3)CC4)ccc2O1	1.09
5) CC1(C)Oc2c(CN3CCC4(CC3)CCN(C(=O)c3ccc(N)cn3)CC4)cccc2C1(F)F	0.36
6) CC1(C)C=Cc2cccc(CN3CCC4(CC3)CCN(C(=O)c3ccnc(N)c3)CC4)c2O1	0.48
7) CC1(C)Cc2c(CN3CCC4(CC3)CCN(C(=O)c3ccnc(N)c3)CC4)cccc2O1	0.55
8) COc1ccccc1Oc1cccc(CN2CCC3(CC2)CCN(C(=O)c2ccncn2)CC3)c1	0.67
9) CC1(C)Cc2c(CN3CCC4(CC3)CCN(C(=O)c3ccc(N)cn3)CC4)cccc2O1	0.79
